Cited source: ChEMBL document CHEMBL4428102

# TARGET OF ASSAY: Gonadotropin-releasing hormone receptor (Homo sapiens, UniProt P30968)
# Sequence (P30968 whole entry): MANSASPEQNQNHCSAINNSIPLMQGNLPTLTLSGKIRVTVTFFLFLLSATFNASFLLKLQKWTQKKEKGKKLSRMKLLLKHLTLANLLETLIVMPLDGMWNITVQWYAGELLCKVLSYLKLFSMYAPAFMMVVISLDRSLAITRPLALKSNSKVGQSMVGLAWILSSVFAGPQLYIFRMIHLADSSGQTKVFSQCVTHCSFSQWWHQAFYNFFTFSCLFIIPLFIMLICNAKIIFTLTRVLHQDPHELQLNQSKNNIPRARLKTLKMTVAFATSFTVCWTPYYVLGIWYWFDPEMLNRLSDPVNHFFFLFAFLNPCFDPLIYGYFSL
# PROTOCOL: Antagonist activity against human GnRH receptor expressed in HEK293 cells co-transfected with pGL4-NFAT promoter AP1-luc assessed as inhibition of 20 nM GnRH-induced NFAT activation pre-incubated for 1 hr before GnRH stimulation and measured after 6 hrs by luciferase reporter gene assay
# Format: cell-based
MEASURE: IC50 (nM)

{"columns": ["COMPOUND", "MEASURE", "UNITS OF MEASURE", "MEAS VALUE"],
 "data": [
  ["Cc1c(N2CCN(Cc3cccc([S+](C)[O-])c3)CC2)c(=O)n(C[C@H](N)c2ccccc2)c(=O)n1Cc1c(F)cccc1C(F)(F)F (some centres not stated)", "IC50", "nM", 51.2],
  ["Cc1c(N2CCN(Cc3cccc(C(F)(F)F)n3)CC2)c(=O)n(C[C@H](N)c2ccccc2)c(=O)n1Cc1c(F)cccc1C(F)(F)F", "IC50", "nM", 217],
  ["Cc1c(N2CCN(Cc3ccnc(C(F)(F)F)c3)CC2)c(=O)n(C[C@H](N)c2ccccc2)c(=O)n1Cc1c(F)cccc1C(F)(F)F", "IC50", "nM", 226],
  ["Cc1c(N2CCN(Cc3ccc(C#N)cc3)CC2)c(=O)n(C[C@H](N)c2ccccc2)c(=O)n1Cc1c(F)cccc1C(F)(F)F", "IC50", "nM", 326]
]}

[I] Cc1c(N2CCN(Cc3cccc(C(N)=O)c3F)CC2)c(=O)n(C[C@H](N)c2ccccc2)c(=O)n1Cc1c(F)cccc1C(F)(F)F
[II] Cc1c(N2CCN(Cc3cccc(C#N)c3)CC2)c(=O)n(C[C@H](N)c2ccccc2)c(=O)n1Cc1c(F)cccc1C(F)(F)F
[III] Cc1c(N2CCN(Cc3ccccc3F)CC2)c(=O)n(C[C@H](N)c2ccccc2)c(=O)n1Cc1c(F)cccc1C(F)(F)F
*Q* Kindly order the items shown according to IC50, from the highest value down. Respond with the label ranking, as requested.
*A* III, II, I
(III: 340 nM, II: 213 nM, I: 42 nM)

###

# TARGET OF ASSAY: Gonadotropin-releasing hormone receptor (Macaca mulatta)
# Sequence (Q8SPZ1 whole entry): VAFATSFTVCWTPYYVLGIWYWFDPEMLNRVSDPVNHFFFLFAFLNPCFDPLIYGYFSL
# PROTOCOL: Antagonist activity against monkey GnRH receptor expressed in HEK293 cells co-transfected with pGL4-NFAT promoter AP1-luc assessed as inhibition of 10 nM GnRH-induced NFAT activation pre-incubated for 1 hr before GnRH stimulation and measured after 6 hrs by luciferase reporter gene assay
# Format: cell-based
MEASURE: IC50 (nM)
Reply with just the number (in nM).

*Q* Please provide the recorded IC50 for Cc1c(N2CCN(Cc3ccc(C(F)(F)F)o3)CC2)c(=O)n(C[C@H](NCCCC(=O)O)c2ccccc2)c(=O)n1Cc1c(F)cccc1C(F)(F)F , tested on Gonadotropin-releasing hormone receptor (Macaca mulatta).
*A* 13.2

###

# PROTOCOL: AUC (infinity) in Sprague-Dawley rat at 10 mg/kg, po by mass spectrometry
# Format: ADME, organism-based
# Parameters: dose 10 mg/kg, route oral, time infinity
# MEASUREMENT SETUP: in vivo
MEASURE: AUC(0-inf) (ng·h/mL)
Reply with just the number (in ng·h/mL).

*Q* Value lookup for AUC(0-inf); key = Cc1c(N2CCN(Cc3ccc(C(F)(F)F)o3)CC2)c(=O)n(C[C@H](NCCCC(=O)O)c2ccccc2)c(=O)n1Cc1c(F)cccc1C(F)(F)F.Cl
*A* 1500

###

# TARGET OF ASSAY: Gonadotropin-releasing hormone receptor (Homo sapiens, UniProt P30968)
# PROTOCOL: Antagonist activity against human GnRH receptor expressed in HEK293 cells co-transfected with pGL4-NFAT promoter AP1-luc assessed as inhibition of 20 nM GnRH-induced NFAT activation pre-incubated for 1 hr before GnRH stimulation and measured after 6 hrs by luciferase reporter gene assay
# Type: cell-based
MEASURE: IC50 (nM)

[a] Cc1c(N2CCN(Cc3ccc(C#N)o3)CC2)c(=O)n(C[C@H](N)c2ccccc2)c(=O)n1Cc1c(F)cccc1C(F)(F)F
[b] Cc1c(N2CCN(Cc3ccccc3C#N)CC2)c(=O)n(C[C@H](N)c2ccccc2)c(=O)n1Cc1c(F)cccc1C(F)(F)F
[c] Cc1c(N2CCN(Cc3cncc(F)c3)CC2)c(=O)n(C[C@H](N)c2ccccc2)c(=O)n1Cc1c(F)cccc1C(F)(F)F
*Q* Method: rank(items above, key=IC50, ascending=True) Respond with the label ranking, as requested.
*A* a, b, c
(a: 103 nM, b: 351 nM, c: 1510 nM)

###

# TARGET OF ASSAY: Gonadotropin-releasing hormone receptor (Homo sapiens, UniProt P30968)
# PROTOCOL: Displacement of [125I]D-Trp6-LHRH from human GnRH receptor expressed in CHO-K1 cell membranes incubated for 1 hr by competitive binding assay
MEASURE: IC50 (µM)

Solved cases (4 shown):
{"columns": ["STRUCTURE SMILES STRING", "UNITS OF MEASURE", "IC50"],
 "data": [
  ["Cc1c(N2CCN(Cc3ccc(Cl)o3)CC2)c(=O)n(C[C@H](N)c2ccccc2)c(=O)n1Cc1c(F)cccc1C(F)(F)F", "µM", 0.00039],
  ["Cc1c(N2CCN(Cc3ccc(Cl)cc3)CC2)c(=O)n(C[C@H](N)c2ccccc2)c(=O)n1Cc1c(F)cccc1F", "µM", 0.014],
  ["Cc1c(N2CCN(Cc3cccc(C(=O)NCCC(=O)O)c3)CC2)c(=O)n(C[C@H](N)c2ccccc2)c(=O)n1Cc1c(F)cccc1C(F)(F)F", "µM", 0.0012],
  ["Cc1c(N2CCN(Cc3ccccc3F)CC2)c(=O)n(C[C@H](N)c2ccccc2)c(=O)n1Cc1c(F)cccc1C(F)(F)F", "µM", 0.001]
]}

[P] Cc1ccccc1CN1CCN(c2c(C)n(Cc3c(F)cccc3F)c(=O)n(C[C@H](N)c3ccccc3)c2=O)CC1
[Q] Cc1c(N2CCN(Cc3cccnc3)CC2)c(=O)n(C[C@H](N)c2ccccc2)c(=O)n1Cc1c(F)cccc1F
[R] COC(=O)c1ccccc1CN1CCN(c2c(C)n(Cc3c(F)cccc3C(F)(F)F)c(=O)n(C[C@H](N)c3ccccc3)c2=O)CC1
[S] Cc1c(N2CCN(Cc3ccc([N+](=O)[O-])cc3)CC2)c(=O)n(C[C@H](N)c2ccccc2)c(=O)n1Cc1c(F)cccc1F
[T] Cc1c(N2CCN(Cc3cccc([N+](=O)[O-])c3)CC2)c(=O)n(C[C@H](N)c2ccccc2)c(=O)n1Cc1c(F)cccc1F
*Q* Please list these in order of increasing IC50. Thank you! Respond with the label ranking, as requested.
*A* T, Q, R, S, P

###

# PROTOCOL: Cmax in beagle dog at 10 mg/kg, po by mass spectrometry
# Type: ADME, organism-based, Canis lupus familiaris
# Set-up: dose 10 mg/kg, route oral
# MEASUREMENT SETUP: in vivo
MEASURE: Cmax (ng/mL)
Reply with just the number (in ng/mL).

*Q* Value lookup for Cmax; key = Cc1c(N2CCN(Cc3ccc(C(F)(F)F)o3)CC2)c(=O)n(C[C@H](NCCCC(=O)O)c2ccccc2)c(=O)n1Cc1c(F)cccc1C(F)(F)F.Cl
*A* 2700

###

# PROTOCOL: Oral bioavailability in Sprague-Dawley rat at 10 mg/kg by mass spectrometry
# Assay type: ADME, organism-based
# MEASUREMENT SETUP: in vivo
MEASURE: bioavailability (%)
Reply with just the number (in %).

*Q* Value lookup for bioavailability; key = Cc1c(N2CCN(Cc3ccc(C(F)(F)F)o3)CC2)c(=O)n(C[C@H](NCCCC(=O)O)c2ccccc2)c(=O)n1Cc1c(F)cccc1C(F)(F)F.Cl
*A* 15.6

###

# PROTOCOL: Half life in castrated cynomolgus monkey at 10 mg/kg, po by mass spectrometry
# Format: ADME, organism-based, Macaca fascicularis
# MEASUREMENT SETUP: male, in vivo
MEASURE: half-life (h)
Reply with just the number (in h).

*Q* Value lookup for half-life; key = Cc1c(N2CCN(Cc3ccc(C(F)(F)F)o3)CC2)c(=O)n(C[C@H](NCCCC(=O)O)c2ccccc2)c(=O)n1Cc1c(F)cccc1C(F)(F)F.Cl
*A* 3.5

###

# TARGET OF ASSAY: Gonadotropin-releasing hormone receptor (Homo sapiens, UniProt P30968)
# PROTOCOL: Antagonist activity against human GnRH receptor expressed in HEK293 cells co-transfected with pGL4-NFAT promoter AP1-luc assessed as inhibition of 20 nM GnRH-induced NFAT activation pre-incubated for 1 hr before GnRH stimulation and measured after 6 hrs by luciferase reporter gene assay
# Assay type: cell-based
MEASURE: IC50 (nM)

Solved cases (3 shown):
{"columns": ["STRUCTURE SMILES STRING", "UNITS OF MEASURE", "IC50"],
 "data": [
  ["Cc1c(N2CCN(Cc3ccc(C(F)(F)F)o3)CC2)c(=O)n(C[C@H](NCCCS(=O)(=O)O)c2ccccc2)c(=O)n1Cc1c(F)cccc1C(F)(F)F", "nM", 122],
  ["Cc1c(N2CCN(Cc3cscn3)CC2)c(=O)n(C[C@H](N)c2ccccc2)c(=O)n1Cc1c(F)cccc1C(F)(F)F", "nM", 2130],
  ["Cc1c(N2CCN(Cc3ccc(C(F)(F)F)o3)CC2)c(=O)n(C[C@H](NCCCP(=O)(O)O)c2ccccc2)c(=O)n1Cc1c(F)cccc1C(F)(F)F", "nM", 411]
]}

[P] Cc1c(N2CCN(Cc3cccc([N+](=O)[O-])c3)CC2)c(=O)n(C[C@H](N)c2ccccc2)c(=O)n1Cc1c(F)cccc1F
[Q] Cc1cncc(CN2CCN(c3c(C)n(Cc4c(F)cccc4C(F)(F)F)c(=O)n(C[C@H](N)c4ccccc4)c3=O)CC2)c1
*Q* Form field 'greater IC50' accepts P or Q ; which applies? Answer by stating the label of the chosen item.
*A* Q
